Across several studies, compounds have been characterized by their pIC50 on Dihydroorotate dehydrogenase (Plasmodium falciparum); a selection follows.
Please keep in mind that pIC50 is minus log10 of the molar concentration; only the number is needed.

Illustrative cases are given below, each with its answer.
> print(dat)
                               smiles.entry                             tested.system  quantitative.readout
1           CCOC(=O)c1sc(Nc2ccc(Br)cc2)nc1C  Dihydroorotate dehydrogenase (Plasmodium falciparum)                  5.61
2  Cc1cc(F)c2nc(C)n(-c3ccc(C(=O)NC4CC4)s3)c2c1  Dihydroorotate dehydrogenase (Plasmodium falciparum)                  7.49
3  Cc1cc(Nc2ccc(S(F)(F)(F)(F)F)cc2)n2nc(S(C)(=O)=O)nc2n1  Dihydroorotate dehydrogenase (Plasmodium falciparum)                  6.96
4  Cc1ccc2nc(C)n(-c3ccc(C(=O)NC4CC4)s3)c2c1  Dihydroorotate dehydrogenase (Plasmodium falciparum)                  7.25
5          Cc1cc(Nc2cc3ccccc3cc2O)n2ncnc2n1  Dihydroorotate dehydrogenase (Plasmodium falciparum)                  6.48
6         COc1ccc(CSc2nc3nc(C)cc(O)n3n2)cc1  Dihydroorotate dehydrogenase (Plasmodium falciparum)                  4.68
7        COCc1nc2nc(C)cc(Nc3ccc(Cl)cc3)n2n1  Dihydroorotate dehydrogenase (Plasmodium falciparum)                  5.66
8  O=C(Nc1nc2ccccc2s1)c1cccc(C(Cl)(Cl)Cl)c1  Dihydroorotate dehydrogenase (Plasmodium falciparum)                  5.71

Notebook: pull reported pIC50 for Dihydroorotate dehydrogenase (Plasmodium falciparum), entry "Cc1nc2c(OCC(F)F)cccc2n1-c1ccc(C(=O)NC2CC2)s1" 7.55

Notebook: pull reported pIC50 for Dihydroorotate dehydrogenase (Plasmodium falciparum), entry "Cc1c(C(=O)Nc2cccc3ccccc23)cccc1[N+](=O)[O-]" 7.00

Notebook: pull reported pIC50 for Dihydroorotate dehydrogenase (Plasmodium falciparum), entry "C/C(O)=C(\C#N)C(=O)Nc1ccc(-c2ccccc2Cl)cc1Cl" 5.40

Notebook: pull reported pIC50 for Dihydroorotate dehydrogenase (Plasmodium falciparum), entry "O=C(Nc1ccccc1C(=O)O)c1ccc2cc(Br)ccc2c1" 3.85

Notebook: pull reported pIC50 for Dihydroorotate dehydrogenase (Plasmodium falciparum), entry "Cc1nc2cc(C(F)(F)F)ccc2n1-c1ccc(C(=O)NC2CC2)s1" 7.55

Notebook: pull reported pIC50 for Dihydroorotate dehydrogenase (Plasmodium falciparum), entry "Cc1cc(Nc2ccc(C(F)(F)F)cc2)n2nc(CC(C)C)nc2n1" 5.70

Notebook: pull reported pIC50 for Dihydroorotate dehydrogenase (Plasmodium falciparum), entry "N#C/C(C(=O)Nc1ccc(C(F)(F)F)cc1)=C(/O)C1CC1" 2.97

Notebook: pull reported pIC50 for Dihydroorotate dehydrogenase (Plasmodium falciparum), entry "CC(=O)c1sc(Nc2ccc(C)c(Cl)c2)nc1C" 6.20

Notebook: pull reported pIC50 for Dihydroorotate dehydrogenase (Plasmodium falciparum), entry "C/C(O)=C(\C#N)C(=O)Nc1ccc(-c2cccc(Cl)c2Cl)cc1Cl" 5.00

Notebook: pull reported pIC50 for Dihydroorotate dehydrogenase (Plasmodium falciparum), entry "Cc1cc(Nc2ccc(Cl)cc2)n2nc(CC3CC3)nc2n1" 4.92
